Reference source for all entries: patent US20250250357A1

- target.or.system: T1, human MSLN-R1-his protein (human, UniProt Q13421 296-390)
- T1 construct: also called human MSLN-R1 protein; hMSLN-R1-his; not shown: His tag
- T1 sequence (Q13421 other isoform, or with tags, fused parts or gaps): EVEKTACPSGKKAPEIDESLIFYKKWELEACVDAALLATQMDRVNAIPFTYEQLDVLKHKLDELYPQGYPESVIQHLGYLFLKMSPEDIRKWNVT
- procedure.text: ELISA, coated antigen; antibody 0.01 nM
Recorded measurements of OD450, one per entry
readout.type: OD450 (OD450)

>  <binder>
S009-F4-94.15 (antibody, human IgG1, kappa, V domains shown, Human-murine chimeric antibody, human IgG1/kappa constant regions) VH: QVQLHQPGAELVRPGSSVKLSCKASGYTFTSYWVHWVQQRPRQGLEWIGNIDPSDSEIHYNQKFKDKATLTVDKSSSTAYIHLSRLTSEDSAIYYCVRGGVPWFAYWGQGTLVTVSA VL: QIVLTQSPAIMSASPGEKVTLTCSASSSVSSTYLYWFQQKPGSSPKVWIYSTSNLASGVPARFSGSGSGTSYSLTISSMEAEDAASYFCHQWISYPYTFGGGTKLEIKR

>  <measured>
0.05

$$$$
>  <binder>
S009-F5-9.16 (antibody, human IgG1, kappa, V domains shown, Human-murine chimeric antibody, human IgG1/kappa constant regions) VH: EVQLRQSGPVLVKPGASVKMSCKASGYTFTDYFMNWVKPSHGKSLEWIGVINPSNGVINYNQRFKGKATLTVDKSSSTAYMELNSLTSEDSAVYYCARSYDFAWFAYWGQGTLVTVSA VL: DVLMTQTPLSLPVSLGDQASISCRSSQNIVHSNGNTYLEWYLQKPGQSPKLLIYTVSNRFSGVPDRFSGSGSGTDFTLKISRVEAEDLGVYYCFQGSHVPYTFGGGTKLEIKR

>  <measured>
0.04

$$$$
>  <binder>
S009-F4-127.10 (antibody, human IgG1, kappa, V domains shown, Human-murine chimeric antibody, human IgG1/kappa constant regions) VH: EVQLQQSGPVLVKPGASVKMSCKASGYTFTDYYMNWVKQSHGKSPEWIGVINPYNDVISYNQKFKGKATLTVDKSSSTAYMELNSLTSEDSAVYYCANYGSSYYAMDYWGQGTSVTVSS VL: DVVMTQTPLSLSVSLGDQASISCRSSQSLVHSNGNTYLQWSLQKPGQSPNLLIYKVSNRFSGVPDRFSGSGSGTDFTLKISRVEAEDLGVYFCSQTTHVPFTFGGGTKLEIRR

>  <measured>
0.05

$$$$
>  <binder>
S009-F6-76.1 (antibody, human IgG1, kappa, V domains shown, Human-murine chimeric antibody, human IgG1/kappa constant regions) VH: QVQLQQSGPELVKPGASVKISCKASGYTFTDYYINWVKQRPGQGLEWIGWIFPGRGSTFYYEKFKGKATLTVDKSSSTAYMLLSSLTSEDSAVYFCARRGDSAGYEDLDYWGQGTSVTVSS VL: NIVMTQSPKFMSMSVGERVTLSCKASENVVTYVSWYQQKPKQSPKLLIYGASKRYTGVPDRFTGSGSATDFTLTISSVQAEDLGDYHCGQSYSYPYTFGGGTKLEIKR

>  <measured>
0.04

$$$$
